Ref: PubChem BioAssay (NCI)

# Test system: 786-0 renal
# METHOD: NCI tumour cell line growth inhibition, 48 h; in the data active means GI50 below about 0.43 µM; inactive means the rest
// classify into active, inactive

{"MOLECULE": "COc1cccc2c1C(=O)c1c(O)c3c(c(O)c1C2=O)CC(O)(C(C)=O)CC3OC1CC(N)C(O)C(C)O1 (configuration not stated)", "LABEL CLASS": "inactive"}
{"MOLECULE": "Cc1cc(C)nc(NC(N)=NCCc2ccccc2)n1", "LABEL CLASS": "inactive"}
{"MOLECULE": "C(=Nc1ccccc1)C1CCCC[N-]1.C(=Nc1ccccc1)C1CCCC[N-]1.[Cu+2].[O-][Cl+3]([O-])([O-])O (configuration not stated)", "LABEL CLASS": "inactive"}
{"MOLECULE": "Cc1ccc(C(=O)N(CCCN)[C@@H](c2nc3cc(Cl)ccc3c(=O)n2Cc2ccccc2)C(C)C)cc1", "LABEL CLASS": "active"}
{"MOLECULE": "O=C(/C=C/c1ccc(B(O)O)cc1)/C=C/c1ccc(B(O)O)cc1", "LABEL CLASS": "inactive"}
{"MOLECULE": "COc1cc(/C(Cl)=C/C=C/C(=O)c2c(C)[n+]([O-])c3ccc(Cl)cc3[n+]2[O-])cc(OC)c1OC", "LABEL CLASS": "inactive"}
{"MOLECULE": "O=P([O-])(O)OP(=O)([O-])O.[NH-][C@H]1CCCC[C@@H]1[NH-].[OH-].[OH-].[Pt+4]", "LABEL CLASS": "inactive"}
{"MOLECULE": "COc1cccc([C@H]2CC(=O)c3cc4c(cc3N2)OCO4)c1", "LABEL CLASS": "active"}

Exercise: Hi team, can someone confirm the assay call for "COc1ccc(C#Cc2ccccc2C#CCCCCO)cc1" ?
Solution: inactive

Exercise: Check "COc1cc(C(=O)OCCCCCCCCCCC[P+](c2ccccc2)(c2ccccc2)c2ccccc2)ccc1O" too.
Solution: inactive

Exercise: Please give the result for "O=[N+]([O-])c1ccc(Nc2ccccc2-c2ccccc2)c2nonc12" too.
Solution: inactive

Exercise: "COc1ccc2c(c1)C(=O)c1c-2n(CCCN)c(=O)c2ccccc12" ?
Solution: active

* * *

# Tested on: K-562 leukemia
# METHOD: NCI tumour cell line growth inhibition, 48 h; in the data active means GI50 below about 0.43 µM; inactive means the rest
Just give me one of these, please: active, inactive

Solved entries (count: 5):
{"MOLECULE": "C=C(Cn1c(=O)c2ccccc2c2ccccc21)c1ccc(C(=O)Nc2ccccc2N)cc1", "LABEL CLASS": "inactive"}
{"MOLECULE": "CC/C(Cc1ccccc1)=C(\\c1ccc(OCCN2CCCCCC2)cc1)c1ccc(OC(=O)NCc2ccccc2)cc1", "LABEL CLASS": "inactive"}
{"MOLECULE": "NS(=O)(=O)c1ccc(NC(=O)c2ccc(NC3=C(Cl)C(=O)N(Cc4ccccc4)C3=O)cc2)cc1", "LABEL CLASS": "inactive"}
{"MOLECULE": "COc1cc2c(cc1OCCCN1CCN(CCCOc3cc4c(cc3OC)C(=O)N3CCC[C@H]3C=N4)CC1)C=CC(C)(C)O2", "LABEL CLASS": "active"}
{"MOLECULE": "O=C(c1ccccc1)c1c(NCC(O)CN2CCCC2)n(Cc2ccccc2)c(=O)n(Cc2ccccc2)c1=O (stereo not drawn)", "LABEL CLASS": "inactive"}

Exercise: Hi team, can someone confirm the assay call for "C=C1C(=O)O[C@H]2[C@H]1CC/C(CNC(=O)/C=C/c1ccc(Br)cc1)=C\CC[C@@]1(C)O[C@@H]21" ?
Solution: inactive

Exercise: Same lookup for CC1=C([Se]CC(OC(=O)[C@@H](CSSC(C)(C)C)NC(=O)OC(C)(C)C)C(=O)NC(C)(C)C)C(=O)c2ccccc2C1=O (stereo partly drawn) , please.
Solution: inactive

Exercise: For "O=C(/C=C/c1ccc(B(O)O)cc1)/C=C/c1ccc(B(O)O)cc1" then?
Solution: inactive
